System: Potassium voltage-gated channel subfamily H member 2, brain isoform KCNH2 3.1 (human)
Experiment: qHTS for Inhibitors of KCHN2 3.1: Mutant qHTS; also: % is scaled to controls: 0 for no effect and ±100 for the full control effect
Details: U2OS KCNH2 3.1, thallium flux FluxOr
Out of some 340,000 compounds screened, about 3,300 (0.97%) were called active.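 The calls were made as follows: active = maximum activity change below -70%; inconclusive = maximum activity change from -70% to -50%; inactive = maximum activity change above -50%.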 What follows is part of a selection rich in actives, with near analogues and random picks from the rest.
Respond only with the outcome that fits, drawn from y = active, n = inactive

> print(dat)
                                   compound                            assayed.system  assigned.category
1  Cn1c(SCC(=O)N2CCCc3ccccc32)nc2ccccc2c1=O  Potassium voltage-gated channel subfamily H member 2, brain isoform KCNH2 3.1 (human)                  n
2  Cc1cc2oc(=O)cc(CN(C)Cc3ccc(OC(F)F)cc3)c2cc1Cl  Potassium voltage-gated channel subfamily H member 2, brain isoform KCNH2 3.1 (human)                  y

[in] Status in this test for CC(C)(C)c1ccc(C(=O)NCc2nnc(SCC(=O)N3CCCc4ccccc43)n2-c2ccccc2)cc1 ?
[out] n

[in] Give the logged outcome of this assay for the following compound: COc1cc(C(=O)NC2CCN(Cc3ccccc3)CC2)cc(Cl)c1OC(C)C
[out] n

[in] What call does the record list for COC(=O)N(C)C[C@@H]1OCc2cnnn2CCCC(=O)N([C@@H](C)CO)C[C@@H]1C ?
[out] n

[in] I would be grateful if you could indicate the recorded call for COc1ccc(C(CNC(=O)CSc2ccccc2)N2CCOCC2)cc1 (stereo not given) .
[out] n

[in] Outcome? C[C@H]1CN([C@@H](C)CO)C(=O)c2cc(-c3ccccc3F)cnc2O[C@H]1CN(C)C(=O)C1CCOCC1
[out] n

[in] Please indicate how the test categorized COc1ccc(C(=O)NC2CC2)cc1OC1CCN(Cc2ccc(SC)cc2)CC1 .
[out] y

[in] GET /call?item= CC1(C)NC(=O)N(CC(=O)Nc2ccc(-c3ccccc3)cc2)C1=O returns the recorded outcome of this test.
[out] n

[in] Could you please tell me the result logged for COc1ccc(C(=O)NC2CC2)cc1OC1CCN(C/C=C/c2ccccc2)CC1 in this assay?
[out] y

[in] Dear colleague, could you share the recorded outcome for Cc1ccc(CN(C)Cc2cc(=O)oc3cc(C)c(Cl)cc23)cc1 when you have a moment?
[out] n

[in] Test call, this compound: CC1(C)Cc2cccc(OCC(=O)N3CCN(c4ccc([N+](=O)[O-])cc4)CC3)c2O1
[out] y

[in] What outcome does the record of this test show for O=C(CNC(=O)N1CC(=O)Nc2ccccc21)Nc1ccc(Br)cc1F ?
[out] n

[in] State the result this test recorded for CCN(C(=O)COC(=O)CCOc1cccc(C)c1)c1c(N)n(Cc2ccccc2)c(=O)[nH]c1=O .
[out] n

[in] Assay outcome for COc1cc2[nH]c(=O)n(Cc3ccc(C(=O)NC4CCN(Cc5ccccc5)CC4)cc3)c(=O)c2cc1OC : what was it?
[out] n

[in] Status in this test for CCN(C(=O)COC(=O)Cc1c(F)cccc1Cl)c1c(N)n(Cc2ccccc2)c(=O)[nH]c1=O ?
[out] y

[in] In this assay, the call recorded for COc1ccc([C@H]2N[C@]3(CCCN(Cc4ccco4)C3=O)[C@H]3C(=O)N(C)C(=O)[C@@H]23)cc1 was what?
[out] n

[in] Hey, what did the test say about CN(CCN1CCOCC1)Cc1nc(-c2ccc3c(c2)OCO3)no1 ?
[out] n

[in] For this compound, state the assay outcome: CCn1ccnc1CN(C)Cc1nc(-c2ccc3c(c2)OCO3)no1
[out] n

[in] Recorded call for O=C(CSc1nc2[nH]ncc2c(=O)n1-c1ccccc1)N1CCCc2ccccc21 ?
[out] y

----------
Tested on: Potassium voltage-gated channel subfamily H member 2, brain isoform KCNH2 3.1 (human)
Assay: qHTS for Inhibitors of KCHN2 3.1: Mutant qHTS; also: % is scaled to controls: 0 for no effect and ±100 for the full control effect
Conditions: U2OS KCNH2 3.1, thallium flux FluxOr
Hit rate of the full screen: of about 340,000 compounds, about 3,300 (0.97%) were called active.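 How the source made its calls: active means maximum activity change below -70%; inconclusive means maximum activity change from -70% to -50%; inactive means maximum activity change above -50%.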 Only a selection was taken, and actives are over-represented in it overall.
Could you please pick one outcome from this set? 1.0 = active, 0.0 = inactive

> print(dat)
                                   molecule                            assayed.system  assigned.category
1  CCc1nccn1S(=O)(=O)c1cccc([N+](=O)[O-])c1  Potassium voltage-gated channel subfamily H member 2, brain isoform KCNH2 3.1 (human)                1.0
2  Cc1cc(Br)ccc1NC(=O)c1sc2ncn(CC(=O)N3CCN(c4ccccn4)CC3)c(=O)c2c1C  Potassium voltage-gated channel subfamily H member 2, brain isoform KCNH2 3.1 (human)                0.0
3  CC1CCN(CC(O)COc2ccc(C(=O)c3ccccc3)cc2)CC1 (configuration not stated)  Potassium voltage-gated channel subfamily H member 2, brain isoform KCNH2 3.1 (human)                0.0
4  Cc1nc(N2CCN(c3ccccn3)CC2)c2c(C)c(C(=O)Nc3ccc(F)c(Cl)c3)sc2n1  Potassium voltage-gated channel subfamily H member 2, brain isoform KCNH2 3.1 (human)                1.0

[in] # outcome recorded in this test, key = O=C(Nc1ccncc1)Nc1ccc(F)cc1
[out] 0.0

[in] Record lookup: outcome of this test for O=C(Nc1ccncc1)c1c(F)cccc1F ?
[out] 1.0

[in] What was the test verdict on C[C@H]1CN([C@@H](C)CO)C(=O)CCCn2cc(nn2)CO[C@@H]1CN(C)S(=O)(=O)c1ccc(-n2cccn2)cc1 ?
[out] 0.0

[in] Give the logged outcome of this assay for the following molecule: COc1cccc(/C=N/NC(=O)C(=O)N2CCCC2)c1
[out] 1.0

[in] Dear all, I need the recorded test outcome for CCCc1nn2c(=O)cc(CSCC(=O)Nc3cccc(C)c3)nc2s1 , thank you.
[out] 1.0

[in] Would you mind telling me which call this test gave O=C(COC(=O)CCc1c[nH]c2ccccc12)Nc1cccc(Cl)c1 ?
[out] 0.0

----------
Test system: Potassium voltage-gated channel subfamily H member 2, brain isoform KCNH2 3.1 (human)
Assay: qHTS for Inhibitors of KCHN2 3.1: Mutant qHTS; also: % is scaled to controls: 0 for no effect and ±100 for the full control effect
Conditions: U2OS KCNH2 3.1, thallium flux FluxOr
Out of some 340,000 compounds screened, about 3,300 (0.97%) were called active.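 The calls were made as follows: active = maximum activity change below -70%; inconclusive = maximum activity change from -70% to -50%; inactive = maximum activity change above -50%.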 For the sample, actives were picked, then their nearest neighbours and some compounds at random.
Form entry, call: pick from active, inactive

> print(dat)
                              compound  assigned.category
1  CCc1c(N=O)c(-c2ccccc2)n(O)[n+]1[O-]           inactive

[in] Please let me know the test result on file for CC1=C(C(=O)N2CCOCC2)CC(CC(=O)NCc2ccco2)C(=O)N1Cc1ccc(F)cc1 (configuration not stated) .
[out] inactive

[in] Call for entry O=C1NN(c2ccccc2)C(=O)/C1=C/c1ccc(-c2cccc(C(=O)O)c2)o1 :
[out] inactive

[in] I would be grateful if you could indicate the recorded call for CC(=O)Nc1ccc(OCC(O)CN2CCN(c3ccccc3Cl)CC2)cc1 (configuration not stated) .
[out] inactive

[in] Which result was noted for this compound in the test: CSc1ncnc2c1ncn2CCCNCC1CCCCC1
[out] inactive

[in] Test call for this compound, please: Nc1cc(C(=O)N2CCN(c3ccccc3Cl)CC2)ccc1N1CC2CC(C1)c1cccc(=O)n1C2 (configuration not stated)
[out] inactive

----------
activity change values by entry
Test system: Potassium voltage-gated channel subfamily H member 2, brain isoform KCNH2 3.1 (human)
Test: qHTS for Inhibitors of KCHN2 3.1: Mutant qHTS; also: % is scaled to controls: 0 for no effect and ±100 for the full control effect
Conditions: U2OS KCNH2 3.1, thallium flux FluxOr; active compounds read low
In all, about 340,000 compounds went through this assay and about 3,300 (0.97%) were called active. Only a selection was taken, and actives are over-represented in it overall.

// sample CCOC(=O)Cn1c(=O)n(Cc2ccc(OC)cc2)c(=O)c2cccnc21 , its activity change was -6.36% (inactive)

Summary for this molecule, CCOC(=O)c1cccc(NS(=O)(=O)c2c(C(=O)N3CCCCCC3)c(C)n(C)c2C)c1 : activity change is 0.277% (inactive)

Kindly note the recorded activity change for Cc1ccc(C(CNC(=O)Nc2ccccc2)N2CCN(C)CC2)cc1 (stereo unspecified) , which is -194% (active)

The reported value for CCOC(=O)c1c(S(=O)(=O)Nc2cccc(Cl)c2)c(C)n(C)c1C in terms of activity change is -89.7% (active)

# activity change (molecule: COC(=O)c1ccccc1N=NNc1ccc([N+](=O)[O-])cc1 ) is 5.4% (inactive)

----------
Quick reference: activity change of the listed items.
System: Potassium voltage-gated channel subfamily H member 2, brain isoform KCNH2 3.1 (human)
Assay: qHTS for Inhibitors of KCHN2 3.1: Mutant qHTS; also: % is scaled to controls: 0 for no effect and ±100 for the full control effect
Conditions: U2OS KCNH2 3.1, thallium flux FluxOr; active compounds read low
Protocol: Many antipsychotic drugs that inhibit the neurotransmitter dopamine also bind to hERG1 channel which might help explain their antipsychotic activity but also produces cardiac side effects. […] U2OS cells were resuspended in cell media containing 10% fetal calf serum (FCS) at a concentration of 2 million cells / mL. […] A stimulation buffer was added to the plate and the second kinetic read (2 min) was obtained. […]
Screen size: about 340,000 compounds; about 3,300 (0.97%) were called active. Many of the other results were omitted from the sample, so actives are more common in it than they were.
Express it in %; write the number only.

GET /value?item= CCOC(=O)C(C(=O)c1ccccc1)C(c1ccccc1)c1nccc2ccccc12 (stereo not given) &field=activity change returns -15.2

Looking up COc1ccc(F)c(-c2nc(CN3CCC(c4ccccc4)CC3)c(C)o2)c1 , I see its activity change listed as -31.2

Quick note, activity change for O=C1c2ccccc2C(=O)N1CCCCCCN1C(=O)c2ccccc2C1=O landed at 6.18

GET /value?item= COc1ccc(Cn2nnc3c(=O)[nH]c(C4CCN(C(=O)c5ccccc5Cl)CC4)nc32)cc1 &field=activity change returns -29.8

activity change for O=C1c2cccc3cccc(c23)C(=O)N1CCCCCc1n[nH]c(=S)o1 is -159
